Sourced from paper PMC6273687

targetUnderTest: soybean lipoxygenase (LOX) (Glycine max, UniProt P08170)
Sequence (P08170 1-839): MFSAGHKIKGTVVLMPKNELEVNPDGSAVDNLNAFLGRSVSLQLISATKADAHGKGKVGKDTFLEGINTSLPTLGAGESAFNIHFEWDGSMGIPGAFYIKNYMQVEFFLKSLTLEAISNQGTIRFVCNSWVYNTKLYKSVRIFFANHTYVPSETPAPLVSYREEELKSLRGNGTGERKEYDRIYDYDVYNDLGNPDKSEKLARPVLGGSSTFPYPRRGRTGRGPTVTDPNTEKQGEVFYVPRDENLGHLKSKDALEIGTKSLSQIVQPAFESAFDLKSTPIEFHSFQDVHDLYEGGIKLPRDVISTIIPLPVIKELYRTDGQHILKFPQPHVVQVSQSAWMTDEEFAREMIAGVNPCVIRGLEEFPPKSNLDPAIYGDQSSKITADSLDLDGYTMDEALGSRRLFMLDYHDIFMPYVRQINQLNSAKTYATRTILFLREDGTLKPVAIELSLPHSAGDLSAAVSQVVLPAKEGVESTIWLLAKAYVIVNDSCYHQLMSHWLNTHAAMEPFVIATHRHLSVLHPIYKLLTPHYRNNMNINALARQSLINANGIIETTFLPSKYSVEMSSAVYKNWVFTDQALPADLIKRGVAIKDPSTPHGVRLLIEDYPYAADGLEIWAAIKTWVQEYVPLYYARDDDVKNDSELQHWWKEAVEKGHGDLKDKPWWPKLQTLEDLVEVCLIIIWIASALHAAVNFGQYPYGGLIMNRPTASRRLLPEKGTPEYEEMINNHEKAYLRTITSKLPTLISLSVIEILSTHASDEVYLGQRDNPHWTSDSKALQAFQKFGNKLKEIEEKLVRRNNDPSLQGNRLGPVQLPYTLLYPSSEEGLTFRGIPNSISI
reportedProperty: pIC50
One number for each entry, as −log10 of the molar value.

COc1cc(NC(C)CCCNC(=O)NNC(=O)/C=C/c2ccc(C(F)(F)F)cc2)c2ncccc2c1 (stereo not shown) [7j] :: 4.46
COc1cc(NC(C)CCCNC(=O)/C=C/c2ccc(C(F)(F)F)cc2)c2ncccc2c1 (stereo not shown) [3j] :: 4.30
COc1cc(NC(C)CCCNC(=O)NNC(=O)/C=C/c2ccc3c(c2)OCO3)c2ncccc2c1 (stereo not shown) [7f] :: 4.26
COc1cc(NC(C)CCCNC(=O)NNC(=O)/C=C/c2cc(OC)c(OC)c(OC)c2)c2ncccc2c1 (stereo not shown) [7e] :: 4.37
COc1cc(NC(C)CCCNC(=O)NNC(=O)/C(C)=C/c2ccccc2)c2ncccc2c1 (stereo not shown) [7b] :: 4.00

Each of the following entries comes with a recorded value; kindly state pIC50 for each.
1. COc1cc(NC(C)CCCNC(=O)NNC(=O)/C=C/c2cc(C(F)(F)F)cc(C(F)(F)F)c2)c2ncccc2c1 (stereo not shown) [7k]
2. COc1cc(NC(C)CCCNC(=O)NNC(=O)/C=C/c2cccc(C(F)(F)F)c2)c2ncccc2c1 (stereo not shown) [7i]

A.
[4.17, 4.37]
